test system: intracellular S. flexneri SF_nanoluc in Caco-2 cells on Cytodex 3 beads; assay: microbe, parasite or virus in culture; settings: Caco-2
Answer each item with its documented Selectivity (log) Caco pIC50 vs cytox.

response.value for CC(=O)c1cccc(NC(=O)Nc2ccc(S(=O)(=O)Nc3cc(C)on3)cc2)c1 (field: Selectivity (log) Caco pIC50 vs cytox) = >0.61 log

Summary for this compound, CCn1c(-c2nonc2N)nc2c(-c3cccc(Cl)c3)ncc(C(O)c3ccn(C)n3)c21 (stereo not shown) : Selectivity (log) Caco pIC50 vs cytox is >1.49 log

According to the records, this compound Cc1nn(-c2ccccc2)c(C)c1NC(=O)CN1C(=O)NC(C)(c2ccco2)C1=O (stereo not shown) displays Selectivity (log) Caco pIC50 vs cytox of >0.61 log

Selectivity (log) Caco pIC50 vs cytox in this record for COc1ccc2c(CC(=O)NC(c3ccc(Cl)cc3)C3CC3)coc2c1 (stereo not shown) : >0.61 log
